# Test system: MDA-MB-231 (FGFR−)
# test-summary: MTT cytotoxicity assay
# measurement-context: human, 48 h
Where a SMILES comes first, the peptide text is derived from it. [ ]: non-standard residue; d: D form. The star is where a group is joined. Levulinoyl = CC(=O)CCC(=O)*
readout-name: IC50

Input line: Supply reported IC50 belonging to this molecule: CC(=O)CCC(=O)N[C@@H](C(=O)N[C@@H](CO)C(=O)N1CCC[C@H]1C(=O)N1CCC[C@@H]1C(=O)N[C@@H](CC(C)C)C(=O)N[C@H](C(=O)N[C@@H](CC(C)C)C(=O)NCC(=O)N[C@@H](CCC(N)=O)C(=O)N[C@@H](CC(C)C)C(=O)N[C@@H](CC(C)C)C(=O)N[C@@H](CO)C(N)=O)[C@@H](C)O)C(C)C [peptide P2] (Levulinoyl-[dV]SP[dP]LTLGQLLS-NH2)
Output line: > 100 µM

====

# test-summary: Stability in organic medium (dimethyl sulfoxide) by UV-Vis spectroscopy
# Format: physicochemical
# measurement-context: time 4 h, band 289-300 nm (λmax in column head)
I'd be grateful if you could share measured Relative variation of the maximum absorbance of the π→π* transitions for these entries.
Output spec: scalar in %, unitless text.

Input line: Supply reported Relative variation of the maximum absorbance of the π→π* transitions belonging to this compound: CCC(=O)C1=C[CH]([Ru-]2([PH](c3ccccc3)(c3ccccc3)c3ccccc3)[n+]3ccccc3-c3cccc[n+]32)C=C1.O=S(=O)([O-])C(F)(F)F (centres unmarked)
Output line: −0.1

Input line: Supply reported Relative variation of the maximum absorbance of the π→π* transitions belonging to this compound: NNC(=O)C1=C[CH]([Ru-]2([PH](c3ccccc3)(c3ccccc3)c3ccccc3)[n+]3ccccc3-c3cccc[n+]32)C=C1.O=S(=O)([O-])C(F)(F)F (centres unmarked)
Output line: 0.7

Input line: Supply reported Relative variation of the maximum absorbance of the π→π* transitions belonging to this compound: O=C(Cc1ccccc1)C1=C[CH]([Ru-]2([PH](c3ccccc3)(c3ccccc3)c3ccccc3)[n+]3ccccc3-c3cccc[n+]32)C=C1.O=S(=O)([O-])C(F)(F)F (centres unmarked)
Output line: −0.1

Input line: Supply reported Relative variation of the maximum absorbance of the π→π* transitions belonging to this compound: COc1cc[n+]2c(c1)-c1cc(O)cc[n+]1[Ru-]2([CH]1C=CC=C1)[PH](c1ccccc1)(c1ccccc1)c1ccccc1.O=S(=O)([O-])C(F)(F)F (centres unmarked)
Output line: 3.0

Input line: Supply reported Relative variation of the maximum absorbance of the π→π* transitions belonging to this compound: CC(=O)C1=C[CH]([Ru-]2([PH](c3ccccc3)(c3ccccc3)c3ccccc3)[n+]3ccccc3-c3cccc[n+]32)C=C1.O=S(=O)([O-])C(F)(F)F (centres unmarked)
Output line: −1.2

====

# test-summary: Stability in organic medium (dimethyl sulfoxide) by UV-Vis spectroscopy
# Assay type: physicochemical
# measurement-context: time 5 h, band 289-300 nm (λmax in column head)
I'd be grateful if you could share measured Relative variation of the maximum absorbance of the π→π* transitions for these entries.
Output spec: scalar in %, unitless text.

Input line: Supply reported Relative variation of the maximum absorbance of the π→π* transitions belonging to this compound: CCC(=O)C1=C[CH]([Ru-]2([PH](c3ccccc3)(c3ccccc3)c3ccccc3)[n+]3ccccc3-c3cccc[n+]32)C=C1.O=S(=O)([O-])C(F)(F)F (centres unmarked) [compound 8]
Output line: −0.1

Input line: Supply reported Relative variation of the maximum absorbance of the π→π* transitions belonging to this compound: COc1cc[n+]2c(c1)-c1cc(O)cc[n+]1[Ru-]2([CH]1C=CC=C1)[PH](c1ccccc1)(c1ccccc1)c1ccccc1.O=S(=O)([O-])C(F)(F)F (centres unmarked) [compound 10]
Output line: 3.0

Input line: Supply reported Relative variation of the maximum absorbance of the π→π* transitions belonging to this compound: O=C(Cc1ccccc1)C1=C[CH]([Ru-]2([PH](c3ccccc3)(c3ccccc3)c3ccccc3)[n+]3ccccc3-c3cccc[n+]32)C=C1.O=S(=O)([O-])C(F)(F)F (centres unmarked) [compound 9]
Output line: −0.3

Input line: Supply reported Relative variation of the maximum absorbance of the π→π* transitions belonging to this compound: NNC(=O)C1=C[CH]([Ru-]2([PH](c3ccccc3)(c3ccccc3)c3ccccc3)[n+]3ccccc3-c3cccc[n+]32)C=C1.O=S(=O)([O-])C(F)(F)F (centres unmarked) [compound 4]
Output line: −0.3

Input line: Supply reported Relative variation of the maximum absorbance of the π→π* transitions belonging to this compound: CC(=O)C1=C[CH]([Ru-]2([PH](c3ccccc3)(c3ccccc3)c3ccccc3)[n+]3ccccc3-c3cccc[n+]32)C=C1.O=S(=O)([O-])C(F)(F)F (centres unmarked) [compound 5]
Output line: −1.5
